experiment: Pharmacokinetic studies of ERX-315; assay type: in vivo, mice; details: mouse, blood; 0.5 hr, single oral 10 mg/kg in captisol
measuredParameter: concentration at 0.5 h (ng/mL)
Give bare numbers, in ng/mL.

INPUT: # query: concentration at 0.5 h of entry "CC(C)COc1cc(C(=O)Nc2ccc(C(=O)N[C@H]3CC[C@H](C(=O)Nc4cnc5ccccc5c4)CC3)cc2OCC(C)C)ccc1NC(=O)c1ccc(F)c(OCCO)c1"
OUTPUT: 3440

###

Experiment: Pharmacokinetic studies of ERX-315
Assay type: in vivo, mice
Settings: mouse, tumor; MCF-7 xenograft, 2 weeks daily oral 10 mg/kg, 16 h after the last dose; read-out: tumor tissue level
Protocol: At 24 h after oral administration, ERX-315 was still detectable in the plasma at >500 ng/mL. […] Thus, the inventors' initial studies indicate that once a day oral dosing of 10 mg/kg ERX-315 in captisol is sufficient to maintain therapeutic drug levels.
measuredParameter: concentration at 16 h

INPUT: Consider the molecule "CC(C)COc1cc(C(=O)Nc2ccc(C(=O)N[C@H]3CC[C@H](C(=O)Nc4cnc5ccccc5c4)CC3)cc2OCC(C)C)ccc1NC(=O)c1ccc(F)c(OCCO)c1" and give its measured concentration at 16 h.
OUTPUT: > 100 ng/g

###

experiment: Pharmacokinetic profile of TX-542; assay type: in vivo; details: mouse, plasma, intraperitoneal
measuredParameter: half-life
Put down the number, then write its unit next to it.

INPUT: What does the record list as half-life for "NCCC(=O)Nc1ccc(C(=O)Nc2ccc(C(=O)NCCc3ccc4ccccc4c3)cc2OCC2CCCCC2)cc1OCCO" ?
OUTPUT: 8 h

###

assay: Pharmacokinetic studies of ERX-315; assay type: in vivo, mice; details: mouse, blood; 2 hr, single oral 10 mg/kg in captisol; read-out: Blood
measuredParameter: concentration at 2 h (ng/mL)
Numbers only, in ng/mL.

INPUT: Would you kindly share the measured concentration at 2 h for "CC(C)COc1cc(C(=O)Nc2ccc(C(=O)N[C@H]3CC[C@H](C(=O)Nc4cnc5ccccc5c4)CC3)cc2OCC(C)C)ccc1NC(=O)c1ccc(F)c(OCCO)c1" ?
OUTPUT: 1840

###

tested on: OCa cells; assay: MTT assay in OCa cells; assay type: cell-based; settings: read-out: IC50 in reducing the growth of OCa cells
measuredParameter: IC50

INPUT: # query: IC50 of entry "CC(C)COc1cc(C(=O)Nc2ccc(C(=O)N[C@H]3CC[C@H](C(=O)Nc4cnc5ccccc5c4)CC3)cc2OCC(C)C)ccc1NC(=O)c1ccc([N+](=O)[O-])c(OCCO)c1"
OUTPUT: 50 to 100 nM
